selectivity ratio for assorted molecules
Method: Selectivity index, ratio of CC50 for dog MDCK cells to EC50 for antiviral activity against Influenza A virus H1N1 (A/Weiss/43) infected in MDCK cells
Assay type: toxicity, cell-based
Applied Conditions: read-out: Ratio CC50/EC50
Observable: selectivity ratio

> print(dat)
                                 mol.smiles         observable  value.observed
1  COc1ccc2c(c1)c(-c1ccccc1)c(NS(C)(=O)=O)n2S(=O)(=O)c1ccc(C)cc1  selectivity ratio              80
2  COc1ccc(-c2c(NS(C)(=O)=O)n(S(=O)(=O)c3ccc(C)cc3)c3ccccc23)cc1  selectivity ratio            21.8

###

Test system: Influenza A virus
Method: Anti-influenza activity against influenza A virus H1NI (A/Weiss/43) infected in dog MDCK cells assessed as virus inhibition rate at 0.625 uM incubated for 72 hrs by MTT assay
Type: functional, organism-based
Observable: Virus inhibition rate at 0.625 uM

> print(dat)
                                 mol.smiles      system.tested                         observable  value.observed
1  Cc1ccc(S(=O)(=O)n2c(NS(C)(=O)=O)c(-c3ccccc3)c3cc(F)ccc32)cc1  Influenza A virus  Virus inhibition rate at 0.625 uM      Not_active
2  CS(=O)(=O)Nc1c(-c2ccccc2)c2ccccc2n1S(C)(=O)=O  Influenza A virus  Virus inhibition rate at 0.625 uM      Not_active
3  Cc1ccc(S(=O)(=O)n2c(NS(C)(=O)=O)c(-c3ccccc3C)c3ccccc32)cc1  Influenza A virus  Virus inhibition rate at 0.625 uM      Not_active
4  Cc1ccc(S(=O)(=O)n2c(NS(C)(=O)=O)c(-c3ccc(Br)cc3)c3ccccc32)cc1  Influenza A virus  Virus inhibition rate at 0.625 uM      Not_active

###

Method: Cytotoxicity against dog MDCK cells after 72 hrs incubation by MTT assay
Format: toxicity, cell-based, Canis lupus familiaris
CC50 at 72 h for assorted molecules
Observable: CC50 at 72 h (µM)

> print(dat)
                                  mol.smiles  measure.unit  censor.symbol  value.observed
 1  Cc1ccc(S(=O)(=O)n2c(NS(C)(=O)=O)c(-c3cccc(Br)c3)c3ccccc32)cc1            µM              =            16.9
 2  COc1ccc(-c2c(NS(C)(=O)=O)n(S(=O)(=O)c3ccc(C)cc3)c3ccccc23)cc1            µM              =            43.6
 3  Cc1ccc(S(=O)(=O)n2c(NS(=O)(=O)c3ccc([N+](=O)[O-])cc3)c(-c3ccccc3)c3ccccc32)cc1            µM              <            6.25
 4  Cc1ccc(S(=O)(=O)n2c(NS(C)(=O)=O)c(-c3ccccc3C)c3ccccc32)cc1            µM              =              43
 5  Cc1ccc(S(=O)(=O)n2c(NS(C)(=O)=O)c(-c3ccccc3)c3cc(F)ccc32)cc1            µM              =            24.4
 6  COc1ccc(S(=O)(=O)Nc2c(-c3ccccc3)c3ccccc3n2S(=O)(=O)c2ccc(C)cc2)cc1            µM              =             434
 7  COc1ccc(S(=O)(=O)n2c(NS(C)(=O)=O)c(-c3ccccc3)c3ccccc32)cc1            µM              =            12.6
 8  Cc1ccc(S(=O)(=O)n2c(NS(C)(=O)=O)c(-c3ccccc3)c3cc(Br)ccc32)cc1            µM              <            6.25
 9  CS(=O)(=O)Nc1c(-c2ccccc2)c2ccccc2n1S(=O)(=O)c1ccc(Cl)cc1            µM              =            14.6
10  CS(=O)(=O)Nc1c(-c2ccccc2)c2ccccc2n1S(=O)(=O)c1ccc([N+](=O)[O-])cc1            µM              =            55.6
11  COc1ccc2c(c1)c(-c1ccccc1)c(NS(C)(=O)=O)n2S(=O)(=O)c1ccc(C)cc1            µM              =             669
12  Cc1ccc(S(=O)(=O)n2c(NS(C)(=O)=O)c(-c3ccccc3)c3ccc(F)cc32)cc1            µM              =            22.8
13  CS(=O)(=O)Nc1c(-c2ccccc2)c2ccccc2n1S(=O)(=O)c1ccccc1            µM              =            36.4
14  Cc1ccc(S(=O)(=O)n2c(NS(C)(=O)=O)c(-c3ccc(F)cc3)c3ccccc32)cc1            µM              =              41
15  CS(=O)(=O)Nc1c(-c2ccccc2)c2ccccc2n1S(C)(=O)=O            µM              =             341
16  COc1ccc2c(-c3ccccc3)c(NS(C)(=O)=O)n(S(=O)(=O)c3ccc(C)cc3)c2c1            µM              =            31.6
17  Cc1ccc(S(=O)(=O)n2c(NS(C)(=O)=O)c(-c3cccc(C)c3)c3ccccc32)cc1            µM              =            16.5
18  Cc1ccc(S(=O)(=O)n2c(NS(C)(=O)=O)c(-c3ccccc3Cl)c3ccccc32)cc1            µM              =            20.9
19  Cc1ccc(S(=O)(=O)Nc2c(-c3ccccc3)c3ccccc3n2S(=O)(=O)c2ccc(C)cc2)cc1            µM              =             414
20  NC(=O)c1ncn([C@@H]2O[C@H](CO)[C@@H](O)[C@H]2O)n1            µM              =             513
21  Cc1ccc(S(=O)(=O)n2c(NS(=O)(=O)c3ccc(Cl)cc3)c(-c3ccccc3)c3ccccc32)cc1            µM              <            6.25
22  Cc1ccc(S(=O)(=O)n2c(NS(C)(=O)=O)c(-c3ccccc3)c3cc(Cl)ccc32)cc1            µM              =            12.8
23  Cc1ccc(S(=O)(=O)n2c(NS(C)(=O)=O)c(-c3ccc(Br)cc3)c3ccccc32)cc1            µM              =            13.2
24  Cc1ccc(S(=O)(=O)n2c(NS(C)(=O)=O)c(-c3cccc(Cl)c3)c3ccccc32)cc1            µM              =            67.1
25  Cc1ccc(S(=O)(=O)n2c(NS(C)(=O)=O)c(-c3ccccc3)c3c(C)cc(C)cc32)cc1            µM              =             357
26  Cc1ccc(S(=O)(=O)n2c(NS(C)(=O)=O)c(-c3ccccc3)c3ccc(C)cc32)cc1            µM              =            5.45
27  Cc1ccc(S(=O)(=O)n2c(NS(=O)(=O)c3ccccc3)c(-c3ccccc3)c3ccccc32)cc1            µM              =             109
28  Cc1ccc(S(=O)(=O)n2c(NS(C)(=O)=O)c(-c3cccs3)c3ccccc32)cc1            µM              =            53.6
29  Cc1ccc(S(=O)(=O)n2c(NS(C)(=O)=O)c(-c3ccccc3)c3cc(C)ccc32)cc1            µM              =            21.3
30  CCOC(=O)C1=C[C@@H](OC(CC)CC)[C@H](NC(C)=O)[C@@H](N)C1            µM              >             800

###

Method: Selectivity index, ratio of CC50 for dog MDCK cells to EC50 for antiviral activity against Influenza A virus H1N1 (A/Weiss/43) infected in MDCK cells
Type: toxicity, cell-based
Applied Conditions: read-out: Selectivity Index
selectivity ratio for assorted molecules
Observable: selectivity ratio

> print(dat)
                                 mol.smiles  value.observed
1  NC(=O)c1ncn([C@@H]2O[C@H](CO)[C@@H](O)[C@H]2O)n1              70
2  CCOC(=O)C1=C[C@@H](OC(CC)CC)[C@H](NC(C)=O)[C@@H](N)C1           > 107
